Listed below: MIC values for each entry.
System: Staphylococcus aureus ATCC29213
Assay: MIC, microbroth dilution
Format: cell-based
Details: rifS, Cation-Adjusted Mueller-Hinton Broth, 37° C., read-out: MIC

CO[C@H]1/C=C/O[C@@]2(C)Oc3c(C)c(O)c4c(c3C2=O)C(=O)C(N2CCOCC2)=C(NC(=O)/C(C)=C\C=C\[C@H](C)[C@H](O)[C@@H](C)[C@@H](O)[C@@H](C)[C@H](OC(=O)NC2CCN(c3c(F)cc5c(=O)c(C(=O)O)cn(C6CC6)c5c3Cl)C2)[C@@H]1C)C4=O (stereo partly shown) [Example 67]; 0.002 to 1.95 µg/mL
CO[C@H]1/C=C/O[C@@]2(C)Oc3c(C)c(O)c4c(c3C2=O)C(=O)C(N2CCOCC2)=C(NC(=O)/C(C)=C\C=C\[C@H](C)[C@H](O)[C@@H](C)[C@@H](O)[C@@H](C)[C@H](OC(=O)NCc2cc(-c3ccccn3)no2)[C@@H]1C)C4=O [Example 47]; 0.002 to 1.95 µg/mL

Query MIC on Staphylococcus aureus ATCC29213 for CO[C@H]1/C=C/O[C@@]2(C)Oc3c(C)c(O)c4c(c3C2=O)C(=O)C(N2CCOCC2)=C(NC(=O)/C(C)=C\C=C\[C@H](C)[C@H](O)[C@@H](C)[C@@H](O)[C@@H](C)[C@H](OC(=O)NCC(=O)NC2CCN(c3c(F)cc5c(=O)c(C(=O)O)cn(C6CC6)c5c3Cl)C2)[C@@H]1C)C4=O (stereo partly shown) [Example 63]
0.002 to 1.95 µg/mL

Query MIC on Staphylococcus aureus ATCC29213 for CO[C@H]1/C=C/O[C@@]2(C)Oc3c(C)c(O)c4c(c3C2=O)C(=O)C(N2CCOCC2)=C(NC(=O)/C(C)=C\C=C\[C@H](C)[C@H](O)[C@@H](C)[C@@H](O)[C@@H](C)[C@H](OC(=O)NCCN2CCN(C)CC2)[C@@H]1C)C4=O [Example 9]
0.002 to 1.95 µg/mL
